target: ETV6-TRKC (Homo sapiens); construct: ETV6 (fusion partner, N-terminal part); the other entry of the earlier key: ETV6 (P41212, Transcription factor ETV6); test: Engineered Ba/F3 cell proliferation inhibition (MTS), ETV6-TRKC; settings: Ba/F3-ETV6-TRKC cells, 72 h
Sequence (Q16288 530-825 isoform Q16288-3 limits assumed): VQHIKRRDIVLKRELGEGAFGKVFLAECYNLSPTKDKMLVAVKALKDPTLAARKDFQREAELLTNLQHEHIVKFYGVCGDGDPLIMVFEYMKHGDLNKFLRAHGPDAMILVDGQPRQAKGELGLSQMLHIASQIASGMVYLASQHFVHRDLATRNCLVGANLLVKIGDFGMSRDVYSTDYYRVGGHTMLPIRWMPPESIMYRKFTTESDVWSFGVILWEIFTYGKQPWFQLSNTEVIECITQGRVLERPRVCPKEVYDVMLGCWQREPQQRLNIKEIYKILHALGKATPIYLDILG

molecule | IC50
Cc1cccc(C(=O)Nc2cnn3ccc(N4CC[C@H]5C[C@]54c4cc(F)ccc4F)nc23)n1 [Example 16] | 1 nM
CC(C)c1nnc(-c2cnn3ccc(N4CC[C@H]5C[C@]54c4cc(F)ccc4F)nc23)s1 [Example 26] | 1 nM
Cc1cnc(C(=O)Nc2cnn3ccc(N4CC[C@H]5C[C@]54c4cc(F)ccc4F)nc23)nc1 [Example 20] | 1 nM
O=C(Nc1cnn2ccc(N3CC[C@H]4C[C@]43c3cc(F)ccc3F)nc12)c1ncc(F)cn1 [Example 21] | 1 nM
O=C(Nc1cnn2ccc(N3CC[C@H]4C[C@]43c3cc(F)ccc3F)nc12)N1CC[C@@H](O)C1 [Example 7] | 3 nM

----------
Biological target: TPM3-TRKA-G595R (Homo sapiens, UniProt P04629, G595R)
Construct: TPM3 (fusion partner, N-terminal part); the other entry of the earlier key: TPM3 (P06753, Tropomyosin alpha-3 chain)
Sequence (P04629 510-796 G595R limits assumed): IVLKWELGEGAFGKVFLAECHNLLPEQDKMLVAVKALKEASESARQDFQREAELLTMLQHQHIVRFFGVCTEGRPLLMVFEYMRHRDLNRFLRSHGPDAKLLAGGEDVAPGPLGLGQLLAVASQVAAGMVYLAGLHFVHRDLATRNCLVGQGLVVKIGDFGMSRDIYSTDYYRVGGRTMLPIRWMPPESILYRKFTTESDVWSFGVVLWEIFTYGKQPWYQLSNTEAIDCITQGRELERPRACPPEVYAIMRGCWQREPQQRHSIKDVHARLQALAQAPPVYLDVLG
Assay: Engineered Ba/F3 cell proliferation inhibition (MTS), TPM3-TRKA-G595R
Conditions: Ba/F3-TPM3-TRKA-G595R cells, 72 h
From the text: MTS testing kit was purchased from Promega (Madison, Wis., USA). The RPMI-1640, Fetal bovine serum and Penicillin-Streptomycin were purchased from Gibco (San Francisco, Calif., USA). Dimethyl sulfoxide (DMSO) and Puromycin were purchased from Sigma (St. Louis, Mo., USA). Mouse interleukin-3 (IL-3) was purchased from Cell signaling Technology (Boston, Mass., USA). […]
Labelling: IC50 reported below 20 nM becomes condition met; at or above becomes condition not met.

structureSmiles | assignedLabel
CC(C)c1nnc(-c2cnn3ccc(N4CC[C@H]5C[C@]54c4cc(F)ccc4F)nc23)o1 | condition not met
CC(C)(C)c1nnc(-c2cnn3ccc(N4CC[C@H]5C[C@]54c4cc(F)ccc4F)nc23)s1 | condition not met
O=C(Nc1cnn2ccc(N3CC[C@H]4C[C@]43c3cc(F)ccc3F)nc12)c1ccccn1 | condition met
Cc1cccc(C(=O)Nc2cnn3ccc(N4CC[C@H]5C[C@]54c4cc(F)ccc4F)nc23)n1 | condition met
Cc1cnc(C(=O)Nc2cnn3ccc(N4CC[C@H]5C[C@]54c4cc(F)ccc4F)nc23)nc1 | condition not met
CC(C)c1nnc(-c2cnn3ccc(N4CC[C@H]5C[C@]54c4cc(F)ccc4F)nc23)s1 | condition met

----------
target: TPM3-TRKA (Homo sapiens, UniProt P04629); construct: TPM3 (fusion partner, N-terminal part); the other entry of the earlier key: TPM3 (P06753, Tropomyosin alpha-3 chain); assay: Engineered Ba/F3 cell proliferation inhibition (MTS), TPM3-TRKA; details: Ba/F3-TPM3-TRKA cells, 72 h
Sequence (P04629 510-796 limits assumed): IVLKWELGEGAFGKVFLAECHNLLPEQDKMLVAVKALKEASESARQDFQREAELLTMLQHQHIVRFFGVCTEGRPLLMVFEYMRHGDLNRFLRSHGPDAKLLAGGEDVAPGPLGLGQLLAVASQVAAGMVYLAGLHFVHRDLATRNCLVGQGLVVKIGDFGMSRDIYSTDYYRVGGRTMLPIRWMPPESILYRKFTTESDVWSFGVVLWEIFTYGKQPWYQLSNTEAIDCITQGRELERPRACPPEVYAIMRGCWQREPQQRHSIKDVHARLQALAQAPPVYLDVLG
pIC50: −log10 of the molar value.
Parameter pIC50: see the listing below.
assayMetric: pIC50

structureSmiles | targetUnderTest | assayMetric | reading
O=C(Nc1cnn2ccc(N3CC[C@H]4C[C@]43c3cc(F)ccc3F)nc12)c1ccccn1 | TPM3-TRKA (Homo sapiens, UniProt P04629) | pIC50 | 9.00
Cc1cccnc1C(=O)Nc1cnn2ccc(N3CC[C@H]4C[C@]43c3cc(F)ccc3F)nc12 | TPM3-TRKA (Homo sapiens, UniProt P04629) | pIC50 | 8.70
O=C1c2ccccc2CN1c1cnn2ccc(N3CC[C@H]4C[C@]43c3cc(F)ccc3F)nc12 | TPM3-TRKA (Homo sapiens, UniProt P04629) | pIC50 | 7.72
Cc1cnc(C(=O)Nc2cnn3ccc(N4CC[C@H]5C[C@]54c4cc(F)ccc4F)nc23)nc1 | TPM3-TRKA (Homo sapiens, UniProt P04629) | pIC50 | 7.85
O=C(Nc1cnc2ccc(N3CC[C@H]4C[C@]43c3cc(F)ccc3F)nn12)N1CC[C@H](O)C1 | TPM3-TRKA (Homo sapiens, UniProt P04629) | pIC50 | 8.30
O=C(Nc1cnn2ccc(N3CC[C@H]4C[C@]43c3cc(F)ccc3Cl)nc12)N1CC[C@H](O)C1 | TPM3-TRKA (Homo sapiens, UniProt P04629) | pIC50 | 7.36
Cc1cccc(C(=O)Nc2cnn3ccc(N4CC[C@H]5C[C@]54c4cc(F)ccc4F)nc23)n1 | TPM3-TRKA (Homo sapiens, UniProt P04629) | pIC50 | 9.00
O=C(Nc1cnn2ccc(N3CC[C@H]4C[C@]43c3cc(F)ccc3F)nc12)c1ccc(F)cn1 | TPM3-TRKA (Homo sapiens, UniProt P04629) | pIC50 | 8.70
O=C(Nc1cnn2ccc(N3CC[C@H]4C[C@]43c3cc(F)ccc3F)nc12)N1CC[C@H](O)C1 | TPM3-TRKA (Homo sapiens, UniProt P04629) | pIC50 | 8.52
Cc1ccc(C(=O)Nc2cnn3ccc(N4CC[C@H]5C[C@]54c4cc(F)ccc4F)nc23)nc1 | TPM3-TRKA (Homo sapiens, UniProt P04629) | pIC50 | 7.48
O=C(Nc1cnc2ccc(N3CC[C@H]4C[C@]43c3cc(F)ccc3F)nn12)N1CC[C@@H](O)C1 | TPM3-TRKA (Homo sapiens, UniProt P04629) | pIC50 | 8.30
CC(C)c1nnc(-c2cnn3ccc(N4CC[C@H]5C[C@]54c4cc(F)ccc4F)nc23)o1 | TPM3-TRKA (Homo sapiens, UniProt P04629) | pIC50 | 8.22
CC(C)(C)c1nnc(-c2cnn3ccc(N4CC[C@H]5C[C@]54c4cc(F)ccc4F)nc23)s1 | TPM3-TRKA (Homo sapiens, UniProt P04629) | pIC50 | 8.70
O=C(Nc1cnn2ccc(N3CC[C@H]4C[C@]43c3cc(F)ccc3F)nc12)c1ncc(F)cn1 | TPM3-TRKA (Homo sapiens, UniProt P04629) | pIC50 | 8.00
O=C(Nc1cnn2ccc(N3CC[C@H]4C[C@]43c3cc(F)ccc3Cl)nc12)N1CC[C@@H](O)C1 | TPM3-TRKA (Homo sapiens, UniProt P04629) | pIC50 | 7.33
CC(C)c1nnc(-c2cnn3ccc(N4CC[C@H]5C[C@]54c4cc(F)ccc4F)nc23)s1 | TPM3-TRKA (Homo sapiens, UniProt P04629) | pIC50 | 8.70
O=C(Nc1cnn2ccc(N3CC[C@H]4C[C@]43c3cc(F)ccc3F)nc12)N1CC[C@@H](O)C1 | TPM3-TRKA (Homo sapiens, UniProt P04629) | pIC50 | 8.52

Values compiled from patent US11459332B2.
